targetSystem: T1, human DLL4 expressed on cells (CHO-hDLL4; HEK293-hDLL4) (human, UniProt Q9NR61 27-685)
T1 construct: full length human DLL4 overexpressed on CHO cells (FMAT, FACS) or HEK293 cells (reporter assay)
experimentSummary: competition FMAT, labelled hNotch1-Fc on CHO-hDLL4 cells
Each entry falls in a class defined on IC50; the bands are bin A (below 7 nM), bin B (7 nM to below 8 nM), bin C (8 nM or more)

binder: DLLBII129B05 (VHH, not shown: small tags and cut ends) VHH: EVQLVESGGGLVQAGGSLRLSCAASGRTFSSYAMAWYRQAPGKEREYVAAIRWSGGTAYYADSVQGRFTISRDNAKNTVYLQMNSLKPEDTAVYYCANRAPDTRLAPYEYDHWGQGTQVTVSS
qualitativeLabel: bin B

binder: DLLBII101G08 (VHH, not shown: small tags and cut ends, parent VHH; also called 101G08 (wt); 101G8) VHH: EVQLVESGGGLVQAGGSLRLSCAASGRTFSSYAMAWFRQAPGKEREFVAAIRWSGGTAYYADSVQGRFTISRDNAKNTVYLQMNSLKPEDTAVYYCANRAADTRLGPYEYDYWGQGTQVTVSS
qualitativeLabel: bin C

binder: DLLBII133G05 (VHH, not shown: small tags and cut ends) VHH: EVQLVESGGGLVQPGGSLRLSCAASGFTFGSYDMSWVRRSPGKGPEWVSAINSGGGSTYYTDYVKGRFTISRDNAKNTLYLQMNSLKPEDTAVYYCAADRYIWARQGEYWGAYAYDYWGQGTQVTVSS
qualitativeLabel: bin A

binder: DLLBII133A09 (VHH, not shown: small tags and cut ends) VHH: EVQLVESGGGLVQPGGSLRLSCAASGFTFGSYDMSWVRRSPGKGPEWVSAINSGGGSTYYADYVKGRFTISRDNAKNTLYLQMNSLKPEDTAVYYCAADRYIWARQGEYWGAYAYDYWGQGTQVTVSS
qualitativeLabel: bin A

binder: DLLBII015 (VHH, not shown: small tags and cut ends) VHH: EVQLVESGGGLVQPGGSLRLSCAASGFTIGSYDMSWVRRSPGKGPEWVSAINSGGGSTYYADYVKGRFTISRDNAKNTLYLQMNSLKPEDTAVYYCAADRYIWARQGEYWGAYAYDYWGQGTQVTVSS
qualitativeLabel: bin A

binder: DLLBII115A05 (VHH, not shown: small tags and cut ends, parent VHH; also called 115A05 (wt); 115A5) VHH: EVQLVESGGGLVQPGGSLRLSCAASGFTFGSYDMSWVRRSPGKGPEWVSSINSGGGSTYYADFVKGRFTISRDNAKNTLYLQMNSLKPEDTAVYYCAADRYIRARQGDYWGAYEYDYWGQGTQVTVSS
qualitativeLabel: bin C
